Overview of recorded z-score for various compounds
experiment-description: HepG2 liver cancer cell viability effects, profiling panel, resazurin fluorescence, 24 h, PK04 Diversity Set (AID 1172); note: test concentration not given here
condition-label: higher = more signal

Below, each entry is followed by its recorded z-score result.
{"columns": ["smiles-structure", "z-score"],
 "data": [
  ["O=C1C[C@]2(c3ccc([N+](=O)[O-])cc3)C(=O)N(CC(F)(F)F)c3cc(CO)ccc3[C@H]2N1CC12CC3CC(CC(C3)C1)C2", 0.961],
  ["C=CCNC(=O)[C@@H]1[C@H]2C(=O)O[C@H](c3ccccc3)[C@H](c3ccccc3)N2[C@H](c2ccc(O)cc2)[C@@]12C(=O)N(C(=O)OCCOC)c1ccccc12", 0.09]
]}

Sure, the documented z-score for `C=C[C@H](COC(C)=O)N(Cc1ccc(OC(C)=O)c(OC)c1)S(=O)(=O)c1ccc(Br)cc1` is 0.203
